# TEST DETAILS: Light emission spectra by Fast Spectral Scanning System (FSSS)
# Assay type: physicochemical
# SETTINGS: in 0.5 ml acetonitrile, Flashing Reagent #1 and #2; maximum could vary by 0-4 nm between determinations
# Emission Max listing for each entry below
OBSERVATION TYPE: Emission Max (nm)

CCOc1ccc2c(C(=O)Oc3c(C)cc(C(=O)OCc4ccccc4)cc3C)c3cc4ccccc4cc3[n+](C)c2c1	508
COc1ccc2c(c1)c(C(=O)Oc1c(C)cc(C(=O)ON3C(=O)CCC3=O)cc1C)c1cc3ccccc3cc1[n+]2CCS(=O)(=O)[O-]	546
Cc1cc(C(=O)OCc2ccccc2)cc(C)c1OC(=O)c1c2ccccc2[n+](CCCS(=O)(=O)[O-])c2cc3ccccc3cc12	516

---

# Emission Max listing for each entry below
# TEST DETAILS: Light emission spectra by Fast Spectral Scanning System (FSSS)
# Type: physicochemical
# SETTINGS: in 0.5 ml acetonitrile, Flashing Reagent #1 and #2; maximum could vary by 0-4 nm between determinations
OBSERVATION TYPE: Emission Max (nm)

COc1ccc(N(C(=O)c2c3ccccc3[n+](C)c3cc4ccccc4cc23)S(=O)(=O)c2cccc(C(=O)OCc3ccccc3)c2)cc1	520
COc1ccc2c(C(=O)Oc3c(C)cc(C(=O)OCc4ccccc4)cc3C)c3ccccc3[n+](C)c2c1 [3-MeO-DMAE-Bz, reference compound]	422
CC(C)c1cc(C(=O)OCc2ccccc2)cc(C(C)C)c1OC(=O)c1c2ccccc2[n+](C)c2cc3ccccc3cc12	520
COc1ccc2c(c1)c(C(=O)Oc1c(C)cc(C(=O)OCc3ccccc3)cc1C)c1cc3ccccc3cc1[n+]2C	550
Cc1cc(C(=O)ON2C(=O)CCC2=O)cc(C)c1OC(=O)c1c2cc(OCC[N+](C)(C)C)ccc2[n+](C)c2cc3ccccc3cc12	550

---

# Range listing for each entry below
# TEST DETAILS: Light emission spectra by Fast Spectral Scanning System (FSSS)
# Assay type: physicochemical
# SETTINGS: spectral region with signal intensity of above 5% of peak height
OBSERVATION TYPE: Range

COc1ccc2c(C(=O)Oc3c(C)cc(C(=O)OCc4ccccc4)cc3C)c3ccccc3[n+](C)c2c1 [3-MeO-DMAE-Bz, reference compound]	395-520 nm
CC(C)c1cc(C(=O)OCc2ccccc2)cc(C(C)C)c1OC(=O)c1c2ccccc2[n+](C)c2cc3ccccc3cc12	485-670 nm
Cc1cc(C(=O)ON2C(=O)CCC2=O)cc(C)c1OC(=O)c1c2cc(OCC[N+](C)(C)C)ccc2[n+](C)c2cc3ccccc3cc12	510-700 nm
Cc1cc(C(=O)OCc2ccccc2)cc(C)c1OC(=O)c1c2ccccc2[n+](CCCS(=O)(=O)[O-])c2cc3ccccc3cc12	482-655 nm

---

# TEST DETAILS: Kinetic study on light emission (time course up to 10 seconds)
# Assay type: physicochemical
# SETTINGS: 6.0 s; normalized to 10 seconds
OBSERVATION TYPE: Percent signal released over different lengths of time

Cc1cc(C(=O)OCc2ccccc2)cc(C)c1OC(=O)c1c2ccccc2[n+](C)c2cc3ccccc3cc12	98%
Cc1cc(C(=O)ON2C(=O)CCC2=O)cc(C)c1OC(=O)c1c2cc(OCC[N+](C)(C)C)ccc2[n+](C)c2cc3ccccc3cc12	88%
COc1ccc2c(C(=O)Oc3c(C)cc(C(=O)OCc4ccccc4)cc3C)c3ccccc3[n+](C)c2c1 [3-MeO-DMAE-Bz, reference compound]	80%
Cc1cc(C(=O)OCc2ccccc2)cc(C)c1OC(=O)c1c2ccccc2[n+](CCCS(=O)(=O)[O-])c2cc3ccccc3cc12	95%
Cc1cc(C(=O)OCc2ccccc2)cc(C)c1OC(=O)c1c2ccccc2[n+](C)c2ccc3ccccc3c12 [ABAC, reference compound]	89%
COc1ccc2c(c1)c(C(=O)Oc1c(C)cc(C(=O)ON3C(=O)CCC3=O)cc1C)c1cc3ccccc3cc1[n+]2CCS(=O)(=O)[O-]	96%
COc1ccc2c(c1)c(C(=O)Oc1c(C)cc(C(=O)OCc3ccccc3)cc1C)c1cc3ccccc3cc1[n+]2C	92%
COc1ccc(N(C(=O)c2c3ccccc3[n+](C)c3cc4ccccc4cc23)S(=O)(=O)c2cccc(C(=O)OCc3ccccc3)c2)cc1	102%
CCOc1ccc2c(C(=O)Oc3c(C)cc(C(=O)OCc4ccccc4)cc3C)c3cc4ccccc4cc3[n+](C)c2c1	95%
CC(C)c1cc(C(=O)OCc2ccccc2)cc(C(C)C)c1OC(=O)c1c2ccccc2[n+](C)c2cc3ccccc3cc12	80%

---

# TEST DETAILS: Light emission spectra by Fast Spectral Scanning System (FSSS)
# Assay type: physicochemical
# SETTINGS: figure legends FIGS. 2A-2E, 3A-3J
OBSERVATION TYPE: emission spectrum peak

COc1ccc2c(c1)c(C(=O)Oc1c(C)cc(C(=O)OCc3ccccc3)cc1C)c1cc3ccccc3cc1[n+]2C	≈ 550 nm
Cc1cc(C(=O)ON2C(=O)CCC2=O)cc(C)c1OC(=O)c1c2cc(OCC[N+](C)(C)C)ccc2[n+](C)c2cc3ccccc3cc12	≈ 550 nm

---

# TEST DETAILS: Light emission spectra by Fast Spectral Scanning System (FSSS)
# Type: physicochemical
# SETTINGS: figure legends FIGS. 2A-2E, 3A-3J
OBSERVATION TYPE: emission spectrum peak

CC(C)c1cc(C(=O)OCc2ccccc2)cc(C(C)C)c1OC(=O)c1c2ccccc2[n+](C)c2cc3ccccc3cc12	≈ 520 nm
Cc1cc(C(=O)OCc2ccccc2)cc(C)c1OC(=O)c1c2ccccc2[n+](C)c2cc3ccccc3cc12	≈ 520 nm
COc1ccc(N(C(=O)c2c3ccccc3[n+](C)c3cc4ccccc4cc23)S(=O)(=O)c2cccc(C(=O)OCc3ccccc3)c2)cc1	≈ 520 nm

---

# TEST DETAILS: Light emission spectra by Fast Spectral Scanning System (FSSS)
# Type: physicochemical
# SETTINGS: spectral region with signal intensity of above 5% of peak height
OBSERVATION TYPE: Range

Cc1cc(C(=O)OCc2ccccc2)cc(C)c1OC(=O)c1c2ccccc2[n+](C)c2cc3ccccc3cc12 [LEAE-Bz]	490-670 nm
Cc1cc(C(=O)OCc2ccccc2)cc(C)c1OC(=O)c1c2ccccc2[n+](C)c2ccc3ccccc3c12 [ABAC, reference compound]	410-530 nm
COc1ccc2c(c1)c(C(=O)Oc1c(C)cc(C(=O)ON3C(=O)CCC3=O)cc1C)c1cc3ccccc3cc1[n+]2CCS(=O)(=O)[O-] [2-MeO-NSE-LEAE-NHS]	500-700 nm
COc1ccc(N(C(=O)c2c3ccccc3[n+](C)c3cc4ccccc4cc23)S(=O)(=O)c2cccc(C(=O)OCc3ccccc3)c2)cc1 [LEAC-Bz]	485-670 nm
COc1ccc2c(c1)c(C(=O)Oc1c(C)cc(C(=O)OCc3ccccc3)cc1C)c1cc3ccccc3cc1[n+]2C [2-MeO-LEAE-Bz]	510-700 nm
CCOc1ccc2c(C(=O)Oc3c(C)cc(C(=O)OCc4ccccc4)cc3C)c3cc4ccccc4cc3[n+](C)c2c1 [3-EtO-LEAE-Bz]	470-660 nm
